# method: Pharmacokinetics in Male Cynomolgus Monkeys
# Type: in vivo
# conditionDescription: cynomolgus monkey, 10 mg/kg PO, plasma, mean
readout: AUC(0-t) (ng·h/mL)

# molecule, unitAbbrev, experimentalValue
measured = [
    ("CC(C)Oc1cc2nc([C@H]3CC[C@H](CN4CCC(c5ccc6c(c5)n(C)c(=O)n6C5CCC(=O)NC5=O)CC4)CC3)cn2cc1C(=O)Nc1cnn2cccnc12 (stereo partly shown)", "ng·h/mL", 84.3),
]

---

# method: Pharmacokinetics (PK) in Male Beagle Dogs
# Type: in vivo
# conditionDescription: dog, 10 mg/kg PO, plasma, mean (Table 6)
# Experimental: Assay 3. Pharmacokinetics (PK) in Male Beagle Dogs The pharmacokinetic (PK) profile in plasma of two compounds of the present invention was determined in male beagle dogs following single dose IV (5 mg/kg) and PO (10 mg/kg) administration. This study was performed under non-GLP conditions, and unless otherwise stated, all analytical reagents were standard laboratory reagent grade. Male beagle dogs were housed individually and maintained in a controlled environment. […]
readout: Cmax

# compound, readout, experimentalValue
data = [
    ("CC(C)Oc1cc2nc([C@H]3CC[C@H](CN4CCC(c5ccc6c(c5)n(C)c(=O)n6C5CCC(=O)NC5=O)CC4)CC3)cn2cc1C(=O)Nc1cccn([C@H]2C[C@H]2F)c1=O (stereo partly shown) [Compound 169]", "Cmax", "32.2 ng/mL"),
]

---

# method: Pharmacokinetics in Male Cynomolgus Monkeys
# Type: in vivo
# conditionDescription: cynomolgus monkey, 5 mg/kg IV, plasma, mean (Table 11)
# Experimental: Assay 5. Pharmacokinetics in Male Cynomolgus Monkeys The pharmacokinetic (PK) profile in plasma of two compounds of the present invention was determined in male cynomolgus monkeys following single dose IV (5 mg/kg) and PO (10 mg/kg) administration. […] Male cynomolgus monkeys, non-naïve, are acceptable species to support PK studies for compounds intended for use in humans. […] RO water was analyzed every three months and every batch of feed was analyzed before using. […]

# molecule, AUC(0-t) (ng·h/mL)
rows = [
    ("CC(C)Oc1cc2nc([C@H]3CC[C@H](CN4CCC(c5ccc6c(c5)n(C)c(=O)n6C5CCC(=O)NC5=O)CC4)CC3)cn2cc1C(=O)Nc1cccn([C@H]2C[C@H]2F)c1=O (stereo partly shown) [Compound 169]", 4680),
]

---

# method: Pharmacokinetics in Male Cynomolgus Monkeys
# Format: in vivo
# conditionDescription: cynomolgus monkey, plasma, 10 mg/kg PO, mean (Table 12)
readout: bioavailability

# molecule, experimentalValue
measured = [
    ("CC(C)Oc1cc2nc([C@H]3CC[C@H](CN4CCC(c5ccc6c(c5)n(C)c(=O)n6C5CCC(=O)NC5=O)CC4)CC3)cn2cc1C(=O)Nc1cccn([C@H]2C[C@H]2F)c1=O (stereo partly shown) [Compound 169]", "10.8%"),
]

---

Recorded measurements of DC50, one per entry
# systemName: IRAK4 (Homo sapiens)
# Construct: 293Tcells expressing HiBiT-tagged IRAK4 were then added into 384-well plates
# Sequence (Q9NWZ3 whole entry): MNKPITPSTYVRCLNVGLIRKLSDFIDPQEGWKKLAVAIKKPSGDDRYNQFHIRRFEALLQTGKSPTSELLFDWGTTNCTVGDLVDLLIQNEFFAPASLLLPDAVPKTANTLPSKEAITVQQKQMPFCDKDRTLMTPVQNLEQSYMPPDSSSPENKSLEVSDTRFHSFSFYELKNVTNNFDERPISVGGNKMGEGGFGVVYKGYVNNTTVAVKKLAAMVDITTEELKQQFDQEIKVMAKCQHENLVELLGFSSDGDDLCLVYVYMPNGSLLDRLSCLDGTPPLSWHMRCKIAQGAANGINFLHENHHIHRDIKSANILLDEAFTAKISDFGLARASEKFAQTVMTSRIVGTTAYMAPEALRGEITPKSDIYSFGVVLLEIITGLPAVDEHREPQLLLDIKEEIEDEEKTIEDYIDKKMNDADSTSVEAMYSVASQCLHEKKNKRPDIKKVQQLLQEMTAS
# method: IRAK4 Degradation Assay, HiBiT Method
# Assay type: cell-based
# conditionDescription: 293T cells expressing HiBiT-tagged IRAK4, 6 hours
readout: DC50

# compound, experimentalValue
records = [
    ("CC(C)Oc1cc2nc(C3CCN(C(=O)CC4CCN(c5ccc6c([C@H]7CCC(=O)NC7=O)nn(C)c6c5)CC4)CC3)cn2cc1C(=O)Nc1cccc(C(F)F)n1", "10 to 100 nM"),
    ("CC(C)Oc1cc2nn([C@H]3CC[C@H](CN4CC[C@@H](c5ccc6c(C7CCC(=O)NC7=O)nn(C)c6c5)[C@@H](O)C4)CC3)cc2cc1C(=O)Nc1cccn([C@H]2C[C@H]2F)c1=O (stereo partly shown)", "< 10 nM"),
    ("CC(C)Oc1cc2nc([C@H]3CC[C@H](CN4CC[C@H](c5ccc6c(N7CCC(=O)NC7=O)nn(C)c6c5)[C@H](O)C4)CC3)cn2cc1C(=O)Nc1cnn2cccnc12", "< 10 nM"),
    ("CC(C)Oc1cc2nn([C@H]3CC[C@H](CN4CCC(c5ccc(OC6CCC(=O)NC6=O)cc5)CC4)CC3)cc2cc1C(=O)Nc1cccn(C2CC2)c1=O (stereo partly shown)", "< 10 nM"),
    ("CC(C)Oc1cc2nn([C@H]3CC[C@H](CN4CCC(c5ccc(O[C@@H]6CCC(=O)NC6=O)cc5)CC4)CC3)cc2cc1C(=O)Nc1cccn(C2CC2)c1=O (single isomer, unassigned)", "10 to 100 nM"),
    ("CC(C)Oc1nc2nc(C3CCC(CN4CCC(c5cc6c(cc5F)c(N5CCC(=O)NC5=O)nn6C)CC4)CC3)cn2cc1C(=O)Nc1cccn([C@H]2C[C@H]2F)c1=O (stereo partly shown)", "< 10 nM"),
    ("CC(C)Oc1cc2nn(C3CCN(C(=O)CN4CCC(c5ccc(C6CCC(=O)NC6=O)cc5)CC4)CC3)cc2cc1C(=O)Nc1cccc(C(F)F)n1 (stereo not shown)", "< 10 nM"),
    ("CC(C)Oc1cc2nc(C3CCN(CC(=O)N4CCC(c5cc(F)c(C6CCC(=O)NC6=O)cc5F)CC4)CC3)cn2cc1C(=O)Nc1cnn2cccnc12 (stereo not shown)", "10 to 100 nM"),
    ("CC(C)Oc1cc2nc([C@H]3CC[C@H](CN4CCC(c5ccc(C6CCC(=O)NC6=O)cc5F)CC4)CC3)cn2cc1C(=O)Nc1cccc(C(F)(F)F)n1 (stereo partly shown)", "100 to 500 nM"),
    ("CC(C)Oc1cc2nc([C@H]3CC[C@H](CN4CCC(c5cc6c(cc5F)c(N5CCC(=O)NC5=O)nn6C)C(F)(F)C4)CC3)cn2cc1C(=O)Nc1cccc(C(F)F)n1 (stereo partly shown)", "100 to 500 nM"),
    ("CC(C)Oc1cc2nc(C3CCN(C(=O)CC4CCN(c5cnc(C6CCC(=O)NC6=O)cn5)CC4)CC3)cn2cc1C(=O)Nc1cccn([C@H]2C[C@H]2F)c1=O (stereo partly shown)", "< 10 nM"),
    ("CC(C)Oc1cc2nc(C3CCN(C(=O)CC4(O)CCN(c5ccc(NC6CCC(=O)NC6=O)cc5)CC4)CC3)cn2cc1C(=O)Nc1cccc(C(F)F)n1 (stereo not shown)", "10 to 100 nM"),
    ("CC(C)Oc1cc2nc(C3CCC(CN4CCC(c5ccc(C6CCC(=O)NC6=O)cc5F)CC4)CC3)cn2cc1C(=O)Nc1cnn2cccnc12 (stereo not shown)", "< 10 nM"),
    ("CC(C)Oc1cc2nc([C@H]3CC[C@H](CN(C)C4CCN(c5cccc6c5n(C)c(=O)n6C5CCC(=O)NC5=O)CC4)CC3)cn2cc1C(=O)Nc1cccc(C(F)F)n1 (stereo partly shown)", "10 to 100 nM"),
    ("CC(C)Oc1cc2nc([C@H]3CC[C@H](CN(C)C4CCN(c5ccc(C6CCC(=O)NC6=O)cc5)CC4)CC3)cn2cc1C(=O)Nc1cccc(C(F)F)n1 (stereo partly shown)", "< 10 nM"),
    ("CC(C)Oc1cc2nc([C@H]3CC[C@H](CN(C)C4CCN(c5ccc(C6CCC(=O)NC6=O)cc5)CC4(F)F)CC3)cn2cc1C(=O)Nc1cccc(C(F)F)n1 (stereo partly shown)", "100 to 500 nM"),
    ("CC(C)Oc1cc2nn([C@H]3CC[C@H](CN4CCC(c5cc6c(cc5F)c(N5CCC(=O)NC5=O)nn6C)CC4)CC3)cc2cc1C(=O)Nc1cccn(C2CC2)c1=O", "< 10 nM"),
    ("CC(C)Oc1cc2nc([C@H]3CC[C@H](CN(C)C4CCN(Cc5cccc(NC6CCC(=O)NC6=O)c5)CC4)CC3)cn2cc1C(=O)Nc1cccc(C(F)F)n1 (stereo partly shown)", "100 to 500 nM"),
    ("CC(C)Oc1cc2nc(C3CCN(CC(F)=C4CCN(c5ccc(NC6CCC(=O)NC6=O)cc5)CC4)CC3)cn2cc1C(=O)Nc1cccc(C(F)F)n1 (stereo not shown)", "10 to 100 nM"),
    ("CC(C)Oc1cc2nc([C@H]3CC[C@H](CN4CCC(c5ncc(NC6CCC(=O)NC6=O)cc5F)CC4)CC3)cn2cc1C(=O)Nc1cccn(C2CC2)c1=O (stereo partly shown)", "10 to 100 nM"),
    ("CC(C)Oc1cc2nn([C@H]3CC[C@H](CN4CC5(CCN(c6ncc(C7CCC(=O)NC7=O)cc6F)CC5)C4)CC3)cc2cc1C(=O)Nc1cccn([C@H]2C[C@H]2F)c1=O (stereo partly shown)", "< 10 nM"),
    ("CC(C)Oc1cc2nc([C@H]3CC[C@H](CN4CCC(c5cccc(NC6CCC(=O)NC6=O)c5)CC4)CC3)cn2cc1C(=O)Nc1cccc(C(F)(F)F)n1 (stereo partly shown)", "100 to 500 nM"),
]
